Tested on: Saccharomyces cerevisiae
Assay: protein stability index of tFT-peptide fusion (C-terminal peptide) (PSI (0-1 scale)); higher = more stable (slower turnover)
Conditions: genetic background: wild type; temperature: 30 C
PROPERTY_NAME: protein stability index
Respond with the number and no other words.

IVFFVLFRFWRF = 0.294
IRSLRPFLLPLF = 0.306
VGSSSGRLLYLC = 0.302

protein stability index reading for CLCFFLICFILF : 0.219

====

Test system: Saccharomyces cerevisiae
Assay: protein stability index of tFT-peptide fusion (C-terminal peptide) (PSI (0-1 scale)); higher = more stable (slower turnover)
Settings: genetic background: wild type; temperature: 30 C
Short version: protein stability index at least 0.7 is Yes, less is No.

These solved cases illustrate the format of a correct answer.
YAVKDKIETLLI [SNU13 C-terminal 12 aa] = Yes
EEEKRRRKKGIR [SPT2 C-terminal 12 aa] = No

### Prompt Hello, I need to know if ILKELSNLETLY [RPB4 C-terminal 12 aa] has measured protein stability index not below 0.7. Thanks!
### Response Yes

### Prompt Hello, I need to know if MQHRGWSSLMSL [YJR146W C-terminal 12 aa] has measured protein stability index not below 0.7. Thanks!
### Response No

### Prompt Hello, I need to know if LVKPKNWKKFRE [KRE2 C-terminal 12 aa] has measured protein stability index not below 0.7. Thanks!
### Response Yes

### Prompt Hello, I need to know if KNLWEKFWAAVA [LYP1 C-terminal 12 aa] has measured protein stability index not below 0.7. Thanks!
### Response No

### Prompt Hello, I need to know if NGTMKRGGVKNK [HPC2 C-terminal 12 aa] has measured protein stability index not below 0.7. Thanks!
### Response No

### Prompt Hello, I need to know if DSIRRIREKYSN [APP1 C-terminal 12 aa] has measured protein stability index not below 0.7. Thanks!
### Response No

### Prompt Hello, I need to know if YWRKQYPEVDLP [UIP3 C-terminal 12 aa] has measured protein stability index not below 0.7. Thanks!
### Response Yes

### Prompt Hello, I need to know if PQFKYRADFLII [APE3 C-terminal 12 aa] has measured protein stability index not below 0.7. Thanks!
### Response No

### Prompt Hello, I need to know if LETAFEEWDYYE [MRX6 C-terminal 12 aa] has measured protein stability index not below 0.7. Thanks!
### Response Yes

====

Test system: Saccharomyces cerevisiae
Experiment: protein stability index of tFT-peptide fusion (C-terminal peptide) (PSI (0-1 scale)); higher = more stable (slower turnover)
Conditions: genetic background: wild type; temperature: 30 C
Short version: protein stability index at least 0.7 is True, less is False.

PPPPPPPPRPLL = True
LLLALLFWPCPI = False
ERKEERGREGKR = False

### Prompt Hello, I need to know if LINHSWLLLSVL has measured protein stability index not below 0.7. Thanks!
### Response False

### Prompt Hello, I need to know if YKKLTRKKIQDK has measured protein stability index not below 0.7. Thanks!
### Response True

### Prompt Hello, I need to know if SLCSRLVVVAWF has measured protein stability index not below 0.7. Thanks!
### Response False

====

System: Saccharomyces cerevisiae
Experiment: protein stability index of tFT-peptide fusion in deletion strain of DAS1 (PSI (0-1 scale)); higher = more stable (slower turnover)
PROPERTY_NAME: protein stability index
Respond with the number and no other words.

Before answering, review these 4 worked examples.
RLIQPLPPQFLN = 0.521
KKHKKGQKQKIL = 0.595
KKHKKGQKIKIN = 0.576
SRGAVGGWRLVG = 0.677

Sample RLIQPLPVQFLR , system: Saccharomyces cerevisiae. Its protein stability index is 0.58

Sample RAIQPLPVQFLN , system: Saccharomyces cerevisiae. Its protein stability index is 0.674

Sample FCMRWTFRYWVN , system: Saccharomyces cerevisiae. Its protein stability index is 0.481

Sample VRGAVMGWRLVG , system: Saccharomyces cerevisiae. Its protein stability index is 0.71

Sample FSMRWTFRYWVNN , system: Saccharomyces cerevisiae. Its protein stability index is 0.558
